- Tested on: MILI (PIWIL2) piRISC loaded with L1MC piRNA (26 nt);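 also: 1 nM active piRISC with 0.1 nM target library at 33 °C single turnover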
- protocol_text: pre-steady-state target cleavage rate (min^-1); guide: L1MC piRNA 5'p-UAACUAAAUACUAUGCAAGCUGUAGG; higher = faster piRNA-guided slicing of the target
- protocol_conditions: auxiliary factor: 500 nM mouse GTSF1
Kindly state pre-steady-state target cleavage rate for each of the entries shown.
One number for each entry.

Before answering, review these 5 worked examples.
sequence_content	readout	experimental_value
UCCUGGAUGUCGUUGCAUAGUAUUUAAUUA	pre-steady-state target cleavage rate	0.0359
UCCUGGUACAGCUUGCAUAGUUUUAGUUA	pre-steady-state target cleavage rate	0.00982
UCCUGGAUCUGCUAGCAUAGUAUUUAGUUA	pre-steady-state target cleavage rate	0.168
UCCUGGAUGAGCUUGCAUAGUAUUUAGUUA [g2:g21:cont:t1A]	pre-steady-state target cleavage rate	0.244
UCCUGGAUCAGCUUGCAUAGUAUUUACAUA	pre-steady-state target cleavage rate	0.0335

Record pre-steady-state target cleavage rate per entry; entries follow.
1. UCCUGCUACAGCUAGGAUAGUAUUUAGUUA
2. UCCUGGAUGUCGGUGCAUAGUAUUUAGUUA
3. UCCUCCUACAGCUUGCAAGUAUUUAGUUA
4. UCCUGGAUGUCGAACCAUAGAAUUUUGUUA
5. UCCUGGAUGUGGUUGCAUAGUAUUUUGUUA
6. UCCUGGAUGUCGUUCCAUAGUAUUUAGUUA

Output:
[0.259, 0.0897, 0.155, 0.251, 0.0586, 0.00992]

Record pre-steady-state target cleavage rate per entry; entries follow.
1. UCCUGGAUGUCGUUGCCUAGUAUUUAGUUA
2. UCCUGGAUGUGCUUGCUUAGUAAUUAGUUA

Output:
1: 0.0556; 2: 0.0601

###

- System: MILI (PIWIL2) piRISC loaded with piRNA #1 (26 nt);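 also: 1 nM active piRISC with 0.1 nM target library at 33 °C single turnover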
- protocol_text: pre-steady-state target cleavage rate (min^-1); guide: piRNA #1 5'p-UGAGGUAGUAGGUUGUAUAGUAUCCA; higher = faster piRNA-guided slicing of the target
- protocol_conditions: auxiliary factor: 500 nM mouse GTSF1
Kindly state pre-steady-state target cleavage rate for each of the entries shown.
Give bare numbers.

sequence_content	target_under_test	pre-steady-state target cleavage rate
GGAGAGGAUACUAUUCAUCCUACUACCUCA	MILI (PIWIL2) piRISC loaded with piRNA #1 (26 nt)	0.273

Record pre-steady-state target cleavage rate per entry; entries follow.
1. GGAGACCUAUCUAUACUACCUUCUACCUCA
2. GGAGACGAUACUAUACUACCUACUACCUGA
3. GGAGACGAUACUAUACAACCUACUACUCUCA
4. GGAGUGGAAACUAAACAACCUACUACCUCA
5. GGAGACCUAACUUUACAUCCUACUACCUCA

Output:
[0.00727, 0.167, 0.244, 0.201, 0.143]

###

- Tested on: MILI (PIWIL2) piRISC loaded with piRNA #1 (26 nt);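 also: 1 nM active piRISC with 0.1 nM target library at 33 °C single turnover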
- protocol_text: pre-steady-state target cleavage rate (min^-1); guide: piRNA #1 5'p-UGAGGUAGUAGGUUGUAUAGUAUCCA; MIWI and MILI are mouse PIWI proteins and EfPiwi is from a freshwater sponge; tags in brackets are library labels; higher = faster piRNA-guided slicing of the target
- protocol_conditions: auxiliary factor: 500 nM mouse GTSF1
Kindly state pre-steady-state target cleavage rate for each of the entries shown.
Answers are plain numbers.

sequence_content	readout	experimental_value
GGAGACCUAUGAUUAUAACCUACUACCUCA	pre-steady-state target cleavage rate	0.00484

Record pre-steady-state target cleavage rate per entry; entries follow.
1. GGAGUGGAUACUAUACUACCAACUACCUCA
2. GGAGAGCAUACUAUACAACGUACUACCUCA
3. GGAGACCUAUGUAUUCUACCUACUACCUCA
4. GGAGACGAUACUAUUCUACCUACUACCUCA
5. GGAGACCUUAGUAAACAACCUACUACCUCA
6. GGAGACCUAACUAUAUAACCUACUACCUCA
7. GGAGACCAUACUAUACAACCUACUACCUUCA
8. GGAGUGGAUACUAAUACAACCUACUACCUCA

Output:
0.00975
0.0213
0.0111
0.173
0.0245
0.117
0.2
0.135
